Source: the supplement of paper PMC9262897

# Test system: E. coli TESEC Mtb Alr
# method: growth (OD600 after 10 h); higher = more growth (less inhibition)
# condition: arabinose 100 nM; compound 0.1 mM; raw OD600 reference: median of DMSO wells 0.413, cell-free background 0.052
Counter-ions that a name gives are not always drawn.
Entries annotated with measured growth

Look over these answered cases.
1) CCC(NC(C)C)C(O)c1ccc(O)c(O)c1 (stereo not given) [Isoetharine mesylate salt]: 0.401
2) CN1CCC(OC(c2ccccc2)c2ccccc2)CC1 [Diphenylpyraline hydrochloride]: 0.408
3) CCCCCCCCCCCCCCCC[N+](C)(C)CCN(Cc1ccc(OC)cc1)c1ncccn1 [Thonzonium bromide]: 0.226
4) Clc1ccc2nsnc2c1NC1=NCCN1 [Tizanidine HCl]: 0.401

input: # growth lookup, item Cn1c(=O)c2nc[nH]c2n(C)c1=O [Theophylline monohydrate]
output: 0.406

----------
# Tested on: E. coli TESEC Mtb Alr
# method: growth (OD600 after 10 h); higher = more growth (less inhibition)
# condition: arabinose 10000 nM; compound 0.1 mM; raw OD600 reference: median of DMSO wells 0.264, cell-free background 0.041
Counter-ions that a name gives are not always drawn.
attribute_measured: growth
Give only the figure.

Look over these answered cases.
1. CCSc1ccc2c(c1)N(CCCN1CCN(C)CC1)c1ccccc1S2 [Thiethylperazine dimalate]: 0.0405
2. CS(=O)(=O)Nc1ccc([N+](=O)[O-])cc1Oc1ccccc1 [Nimesulide]: 0.247
3. CC[N+](C)(CC)CCC[n+]1c(-c2ccccc2)c2cc(N)ccc2c2ccc(N)cc21 [Propidium iodide]: 0.116
4. CCc1cc(C(N)=S)ccn1 [Ethionamide]: 0.262
5. Cc1onc(-c2ccccc2Cl)c1C(=O)N[C@@H]1C(=O)N2[C@@H]1SC(C)(C)[C@@H]2C(=O)O [Cloxacillin sodium salt]: 0.267

input: # growth lookup, item CC(Oc1c(Cl)cccc1Cl)C1=NCCN1 (centres undefined)
output: 0.259

input: # growth lookup, item CCN1CC(CCN2CCOCC2)C(c2ccccc2)(c2ccccc2)C1=O (centres undefined) [Doxapram hydrochloride]
output: 0.248

input: # growth lookup, item CN1CCCN=C1/C=C/c1cccc(O)c1 [Oxantel pamoate]
output: 0.236

input: # growth lookup, item `COc1cc(-c2ccc(=O)[nH]n2)ccc1OC(F)F`
output: 0.188

----------
# Test system: E. coli TESEC Mtb Alr
# method: growth (OD600 after 10 h); higher = more growth (less inhibition)
# condition: arabinose 1000 nM; compound 0.1 mM; raw OD600 reference: median of DMSO wells 0.294, cell-free background 0.041
Counter-ions that a name gives are not always drawn.
attribute_measured: growth
Give only the figure.

Look over these answered cases.
1. CCS(=O)(=O)CCn1c([N+](=O)[O-])cnc1C: 0.286
2. CN(C)c1nc(N(C)C)nc(N(C)C)n1: 0.315
3. C[C@H](N[C@@H](CCc1ccccc1)C(=O)O)C(=O)N1CCC[C@H]1C(=O)O [Enalaprilat dihydrate]: 0.291
4. CC(C)Oc1ccc2c(=O)c(-c3ccccc3)coc2c1: 0.25
5. COc1ccc(OC)c(C(O)CNC(=O)CN)c1 (centres undefined) [Midodrine hydrochloride]: 0.291

input: # growth lookup, item `Clc1ccc(Nc2nnc(Cc3ccncc3)c3ccccc23)cc1`
output: 0.0967

input: # growth lookup, item OCCN1CCN(CC/C=C2/c3ccccc3Sc3ccc(Cl)cc32)CC1 [Zuclopenthixol dihydrochloride]
output: 0.257

input: # growth lookup, item COc1cc2nc(N3CCN(C(=O)C4CCCO4)CC3)nc(N)c2cc1OC (centres undefined) [Terazosin hydrochloride]
output: 0.292

input: # growth lookup, item CC(=O)Nc1ccc(OCC(O)CNC(C)C)cc1 (centres undefined)
output: 0.307
